Experiment: Peptide-induced K+ release from unilamellar liposomes (Example 2)
Settings: POPC:POPG 3:1 liposomes, 22° C.
MEASUREMENT LABEL: % K+ - Release POPC:POPG,3:1

598-616 D608C: peptide 598-616 with D608C substitution (ILNRLVQFVKCRISVVQAL; UniProt P03385 631-649, looked up, variant D608C) = 7%
598-616 R609A: peptide 598-616 with Arg 609 Ala mutation (ILNRLVQFVKDAISVVQAL; UniProt P03385 631-649, looked up, variant R609A) = 0%

// below: % K+ - Release POPC:POPG,3:1 requested for another substance
Query string: Report measured % K+ - Release POPC:POPG,3:1; entry is 598-616 R601C: peptide 598-616 with R601C substitution (ILNCLVQFVKDRISVVQAL; UniProt P03385 631-649, looked up, variant R601C)
Result string: 10%

----------
Assay: Peptide-induced K+ release from unilamellar liposomes (Example 2)
Details: POPC:POPG 1:1 liposomes, 22° C.
Listed next: entries and their corresponding % K+ - Release POPC:POPG1:1.
Give your result in % as a bare value.

598-616 D608C: peptide 598-616 with D608C substitution (ILNRLVQFVKCRISVVQAL; UniProt P03385 631-649, looked up, variant D608C) = 11
598-616 R601C: peptide 598-616 with R601C substitution (ILNCLVQFVKDRISVVQAL; UniProt P03385 631-649, looked up, variant R601C) = 13

# context switch: different substance, same % K+ - Release POPC:POPG1:1
Query string: State its % K+ - Release POPC:POPG1:1: 598-616 Q604C: peptide 598-616 with Q604C substitution (ILNRLVCFVKDRISVVQAL; UniProt P03385 631-649, looked up, variant Q604C)
Result string: 28

----------
Assay: Peptide-induced K+ release from unilamellar liposomes (Example 2)
Details: POPC:POPG 1:1 liposomes, 22° C.
Assign Fulfilled to entries whose % K+ - Release POPC:POPG1:1 meets or exceeds 5%; assign Not fulfilled to the rest.

Solved entries:
ILNRLVQFVKDRISVVQAL (Moloney murine sarcoma virus) [Peptide 598-616] = Fulfilled
598-616 R609A: peptide 598-616 with Arg 609 Ala mutation (ILNRLVQFVKDAISVVQAL; UniProt P03385 631-649, looked up, variant R609A) = Not fulfilled

Query string: Evaluate 598-616 F605C: peptide 598-616 with F605C substitution (ILNRLVQCVKDRISVVQAL; UniProt P03385 631-649, looked up, variant F605C) : % K+ - Release POPC:POPG1:1 at minimum 5%?
Result string: Fulfilled

Query string: Is the recorded value of % K+ - Release POPC:POPG1:1 equal to or greater than 5% for this substance? 598-611: peptide of MoMuLV env residues 598-611 (ILNRLVQFVKDRIS; UniProt P03385 631-644, looked up, fragment) [Peptide 598-611]
Result string: Fulfilled

----------
Assay: Peptide-induced K+ release from unilamellar liposomes (Example 2)
Conditions: POPC:POPG 3:1 liposomes, 22° C.
MEASUREMENT LABEL: % K+ - Release POPC:POPG,3:1 (%)
Give the number; % is assumed, so skip it.

Solved cases (4 shown):
598-616 F605C: peptide 598-616 with F605C substitution (ILNRLVQCVKDRISVVQAL; UniProt P03385 631-649, looked up, variant F605C) = 4
602-616: peptide of MoMuLV env residues 602-616 (LVQFVKDRISVVQAL; UniProt P03385 635-649, looked up, fragment) [Peptide 602-616] = 4
598-616 Q604C: peptide 598-616 with Q604C substitution (ILNRLVCFVKDRISVVQAL; UniProt P03385 631-649, looked up, variant Q604C) = 20
ILNRLVQFVKDRISVVQAL (Moloney murine sarcoma virus) [Peptide 598-616] = 13

Now for the substance whose % K+ - Release POPC:POPG,3:1 we want.
Query string: Give me measured % K+ - Release POPC:POPG,3:1, please, for this substance: 598-611: peptide of MoMuLV env residues 598-611 (ILNRLVQFVKDRIS; UniProt P03385 631-644, looked up, fragment) [Peptide 598-611]
Result string: 13
